- Tested on: Tyrosine-protein kinase ABL1 (Homo sapiens), P00519 [E255K]
- Sequence (P00519 whole entry E255K): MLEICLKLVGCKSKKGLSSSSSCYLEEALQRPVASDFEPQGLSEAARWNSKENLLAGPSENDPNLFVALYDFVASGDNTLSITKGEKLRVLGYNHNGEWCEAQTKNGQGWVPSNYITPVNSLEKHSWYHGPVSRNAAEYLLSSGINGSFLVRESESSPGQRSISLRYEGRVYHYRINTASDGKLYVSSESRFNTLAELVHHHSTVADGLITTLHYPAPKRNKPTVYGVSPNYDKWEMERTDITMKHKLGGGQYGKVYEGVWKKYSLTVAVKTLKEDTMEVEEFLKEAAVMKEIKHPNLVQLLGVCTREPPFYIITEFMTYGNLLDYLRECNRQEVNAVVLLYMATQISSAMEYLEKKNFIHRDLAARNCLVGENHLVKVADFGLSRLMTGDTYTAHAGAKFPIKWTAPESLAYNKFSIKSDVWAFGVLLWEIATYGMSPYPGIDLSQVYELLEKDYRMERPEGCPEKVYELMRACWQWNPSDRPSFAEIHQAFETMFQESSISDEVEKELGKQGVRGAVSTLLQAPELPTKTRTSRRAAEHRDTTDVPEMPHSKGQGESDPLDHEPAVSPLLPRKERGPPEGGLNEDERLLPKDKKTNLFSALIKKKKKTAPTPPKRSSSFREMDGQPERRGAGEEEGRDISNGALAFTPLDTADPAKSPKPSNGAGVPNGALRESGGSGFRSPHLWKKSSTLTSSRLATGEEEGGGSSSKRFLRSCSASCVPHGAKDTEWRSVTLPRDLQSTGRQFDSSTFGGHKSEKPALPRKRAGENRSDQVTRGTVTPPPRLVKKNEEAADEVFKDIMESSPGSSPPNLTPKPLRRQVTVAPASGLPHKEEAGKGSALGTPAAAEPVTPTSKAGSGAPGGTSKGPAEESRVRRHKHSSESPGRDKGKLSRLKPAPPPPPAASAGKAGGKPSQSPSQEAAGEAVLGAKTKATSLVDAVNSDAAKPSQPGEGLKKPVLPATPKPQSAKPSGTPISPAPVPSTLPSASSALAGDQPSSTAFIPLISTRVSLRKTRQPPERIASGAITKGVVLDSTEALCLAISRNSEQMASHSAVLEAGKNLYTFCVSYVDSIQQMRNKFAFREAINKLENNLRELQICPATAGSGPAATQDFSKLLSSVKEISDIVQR
- MEASUREMENT_PARAMETERS: at 1 µM
Could you please report measured inhibition for the items listed next?
Just the number in %, nothing appended.

Tyrosine-protein kinase ABL1 (Homo sapiens), P00519 [E255K] assay, molecule `CNC(=O)c1cccc(C#Cc2cncnc2Nc2ccc(OCc3cccc(F)c3)c(Cl)c2)c1` , recorded inhibition = 0.64

`Fc1ccc(-c2nn3ccccc3c2-c2ccncc2)cc1` tested on Tyrosine-protein kinase ABL1 (Homo sapiens), P00519 [E255K] gave inhibition: 2.14

Observed inhibition on Tyrosine-protein kinase ABL1 (Homo sapiens), P00519 [E255K], entry `COC(=O)Nc1nc2ccc(Oc3ccc(NC(=O)Nc4cccc(Cl)c4)cc3)cc2[nH]1` , equals 8.54

For the molecule `Fc1ccc(-c2cc(-c3c[nH]nc3-c3ccccn3)ccn2)cc1` , the measured inhibition on Tyrosine-protein kinase ABL1 (Homo sapiens), P00519 [E255K] was 14.4

Response field inhibition (Tyrosine-protein kinase ABL1 (Homo sapiens), P00519 [E255K]) for item `CN1CCC(n2cnc(-c3ccc(F)cc3)c2-c2ccnc(N)n2)CC1` : 7

Tyrosine-protein kinase ABL1 (Homo sapiens), P00519 [E255K] data for `Fc1ccc(-c2nn3ncccc3c2-c2ccnc(Nc3ccc4c(c3)OCCO4)n2)cc1` ; its inhibition: 40.9

Form field inhibition for item `O=C(O[C@H]1CN[C@H](C#Cc2cc3ncnc(Nc4ccc(Cc5ccccc5)cc4)c3s2)C1)N1CCOCC1` on Tyrosine-protein kinase ABL1 (Homo sapiens), P00519 [E255K]: -0.38

Record for CC1=C(C(=O)Nc2cc(Cl)c3[nH]ncc3c2)C(c2ccc(C(F)(F)F)cc2)CC(=O)N1 (stereo unspecified) under target or system Tyrosine-protein kinase ABL1 (Homo sapiens), P00519 [E255K]: inhibition reported as 3.01

Kindly note: Tyrosine-protein kinase ABL1 (Homo sapiens), P00519 [E255K], `Nc1nc(-c2ccc(F)cc2)c(-c2ccc3ncccc3n2)s1` , inhibition value reported: 16.1

Per the reported Tyrosine-protein kinase ABL1 (Homo sapiens), P00519 [E255K] data, `CC(=O)NCc1cccc(C#Cc2cncnc2Nc2ccc(OCc3cccc(F)c3)c(Cl)c2)c1` has inhibition of 1.65

Tyrosine-protein kinase ABL1 (Homo sapiens), P00519 [E255K] assay, molecule `O=C(Nc1n[nH]c2cc(-c3ccc(F)cc3)ccc12)C1CC1` , recorded inhibition = 23.3

inhibition on Tyrosine-protein kinase ABL1 (Homo sapiens), P00519 [E255K] for `CCNC(=O)O[C@H]1CN[C@H](C#Cc2cc3ncnc(Nc4ccc(OCc5cccc(F)c5)c(Cl)c4)c3s2)C1` is 2.82

The measured inhibition that `Cc1cccc(Nc2ncc(-c3ccccc3)o2)c1` showed for Tyrosine-protein kinase ABL1 (Homo sapiens), P00519 [E255K] is 8.14

inhibition on Tyrosine-protein kinase ABL1 (Homo sapiens), P00519 [E255K] for `COc1cccc(-c2c[nH]c3c(N/N=C/c4ccncc4)ncnc23)c1` is 91.1

Tested system Tyrosine-protein kinase ABL1 (Homo sapiens), P00519 [E255K]; inhibition recorded for `Cc1cccc2c1NC(=O)/C2=N\Nc1ccc(S(N)(=O)=O)cc1` was 6.03

Assay Tyrosine-protein kinase ABL1 (Homo sapiens), P00519 [E255K], sample `FC(F)(F)c1cccc(-c2nn3ncccc3c2-c2ccnc(Nc3ccc4c(c3)OCCO4)n2)c1` , inhibition read: 9.11

Observed inhibition on Tyrosine-protein kinase ABL1 (Homo sapiens), P00519 [E255K], entry `CCn1c(-c2nonc2N)nc2c(C#CC(C)(C)O)nc(OC[C@H](N)c3ccccc3)cc21` , equals -0.66

With Tyrosine-protein kinase ABL1 (Homo sapiens), P00519 [E255K] as the test system, `COc1ccc(-c2nn3ncccc3c2-c2ccnc(Nc3ccc4c(c3)OCCO4)n2)cc1` showed inhibition of 13.9

`CCn1c(-c2nonc2N)nc2ccccc21` on Tyrosine-protein kinase ABL1 (Homo sapiens), P00519 [E255K] gives inhibition = 2.16

Lab note: molecule `Clc1ccc(-c2nn3ncccc3c2-c2ccnc(Nc3ccccc3)n2)cc1` tested on Tyrosine-protein kinase ABL1 (Homo sapiens), P00519 [E255K]; recorded inhibition was 8.98

Simply: `CN(C)CCOc1ccc(-c2nc(-c3ccncc3)c(-c3ccc4c(c3)CC/C4=N\O)[nH]2)cc1` , Tyrosine-protein kinase ABL1 (Homo sapiens), P00519 [E255K], inhibition = 17.5
